Below is a list of entries, each paired with its recorded log10(Ki) value.
- systemName: 5-HT2A receptor (Homo sapiens (Human), UniProt P28223)
- Sequence (P28223 whole entry): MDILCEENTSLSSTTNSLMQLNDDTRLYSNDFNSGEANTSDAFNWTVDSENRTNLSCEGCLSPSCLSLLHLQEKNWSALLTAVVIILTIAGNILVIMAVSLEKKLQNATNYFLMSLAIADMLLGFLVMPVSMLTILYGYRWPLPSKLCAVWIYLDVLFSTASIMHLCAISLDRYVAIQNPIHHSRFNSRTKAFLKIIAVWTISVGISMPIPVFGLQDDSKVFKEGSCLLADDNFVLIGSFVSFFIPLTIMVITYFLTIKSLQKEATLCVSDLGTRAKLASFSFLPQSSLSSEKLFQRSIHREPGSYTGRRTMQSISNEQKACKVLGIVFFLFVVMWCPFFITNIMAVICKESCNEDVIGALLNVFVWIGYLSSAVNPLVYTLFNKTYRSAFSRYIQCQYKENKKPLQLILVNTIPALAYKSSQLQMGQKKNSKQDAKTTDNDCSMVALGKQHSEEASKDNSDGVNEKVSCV
- methodNotes: Radioligand binding assay ([3H]5-HT competition), 5-HT2A
- conditionParameters: [3H]5-HT radioligand, membranes of HEK293 cells expressing recombinant 5-HT2A; Ki from IC50 by Cheng-Prusoff; read-out: 5-HT2A serotonin binding Ki value
measuredProperty: log10(Ki) (log10 of the value in nM)

> print(dat)
                                   compound  endpointresult
1  Cc1nocc1C(=O)Nc1ccc(OC[C@H]2CCCCN2)c(-c2c(C)noc2C)c1            0.71
2  Cc1noc(C)c1-c1cc(NC(=O)[C@H]2C[C@H]2F)ccc1OCCN1CCCC1            1.18
3  Cc1noc(C)c1-c1cc(NC(=O)C2CC2)ccc1OC[C@@H]1COCCN1            2.26
4  Cc1noc(C)c1-c1cc(NC(=O)C2CC2)ccc1OCCN1C[C@@H]2C[C@H]1CO2            0.61
5  Cc1noc(C)c1-c1cc(NC(=O)c2cccc(F)c2)ccc1OC1CNC1            0.03
6  Cc1noc(C)c1-c1cc(NC(=O)Cc2ccccc2)ccc1OCCN1CCC1            1.07
7  Cc1noc(C)c1-c1cc(NC(=O)C2CC2C2CC2)ccc1OCCN1CCCC1 (stereo not shown)            0.46

====

- systemName: 5-HT2A receptor (Homo sapiens (Human))
- methodNotes: HTRF IP-One antagonist assay, 5-HT2A
- conditionParameters: HEK293 cells stably expressing recombinant human receptor; IP accumulation with 80 nM 5-HT
pIC50: −log10 of the molar value.
# binarize pIC50: threshold 8 inclusive, high side 1 (yes), low side 0 (no)

> print(dat)
                                    compound  categorylabel
 1  CC(=N)NCCOc1ccc(NC(=O)C2CC2)cc1-c1c(C)noc1C [Compound 198]         0 (no)
 2  Cc1noc(C)c1-c1cc(NC(=O)c2ccccc2)ccc1OC1CNC1 [Compound 241]         0 (no)
 3  CO[C@H]1CCN(CCOc2ccc(NC(=O)C3CC3)cc2-c2c(C)noc2C)C1 [Compound 144]         0 (no)
 4  Cc1noc(C)c1-c1cc(NC(=O)C2(F)CC2)ccc1OC[C@H]1CCCCN1 [Compound 217]        1 (yes)
 5  CCOC1CC1C(=O)Nc1ccc(OC[C@H]2CCCCN2)c(-c2c(C)noc2C)c1 (stereo partly shown) [Compound 229]         0 (no)
 6  COc1cccc(CC(=O)Nc2ccc(OC[C@H]3CCCCN3)c(-c3c(C)noc3C)c2)c1 [Compound 222]         0 (no)
 7  COc1cccc(C(=O)Nc2ccc(OC[C@H]3CCCCN3)c(-c3c(C)noc3C)c2)c1 [Compound 220]        1 (yes)
 8  COc1cccc(C(=O)Nc2ccc(OC3CNC3)c(-c3c(C)noc3C)c2)c1 [Compound 244]         0 (no)
 9  Cc1noc(C)c1-c1cc(NC(=O)C2(F)CC2)ccc1OC1CNC1 [Compound 245]         0 (no)
10  Cc1noc(C)c1-c1cc(NC(=O)c2c(F)cnn2C)ccc1OC1CNC1 [Compound 240]         0 (no)
11  Cc1noc(C)c1-c1cc(NC(=O)[C@H]2C[C@H]2F)ccc1OC[C@H]1CCCCN1 [Compound 191]         0 (no)

====

Measured pIC50 values are reported for all entries that follow.
- systemName: 5-HT2A receptor (Homo sapiens (Human))
- methodNotes: HTRF IP-One antagonist assay, 5-HT2A
- conditionParameters: HEK293 cells stably expressing recombinant human receptor; IP accumulation with 80 nM 5-HT
pIC50: −log10 of the molar value.
measuredProperty: pIC50

> print(dat)
                                  smilescode  endpointresult
 1  Cc1noc(C)c1-c1cc(NC(=O)c2ccc(F)cc2)ccc1OCCN1CCC1            7.53
 2  COCCNCCOc1ccc(NC(=O)C2CC2)cc1-c1c(C)noc1C            8.31
 3  Cc1ncoc1C(=O)Nc1ccc(OC[C@H]2CCCCN2)c(-c2c(C)noc2C)c1            7.35
 4  Cc1noc(C)c1-c1cc(NC(=O)c2c(F)cnn2C)ccc1OCCN1CCCC1            8.06
 5  Cc1noc(C)c1-c1cc(NC(=O)c2cccn2C)ccc1OC[C@H]1CCCCN1            7.60
 6  Cc1noc(C)c1-c1cc(NC(=O)C2(F)CC2)ccc1O[C@@H]1CCNC1            7.34
 7  Cc1noc(C)c1-c1cc(NC(=O)Cc2cncc(F)c2)ccc1OC[C@H]1CCCCN1            7.96
 8  Cc1noc(C)c1-c1cc(NC(=O)Cc2cnsc2)ccc1OC[C@H]1CCCCN1            8.62
 9  Cc1noc(C)c1-c1cc(NC(=O)Cc2cccc(F)c2)ccc1OCCN1CCC1            7.42
10  Cc1ncsc1CC(=O)Nc1ccc(OC[C@H]2CCCCN2)c(-c2c(C)noc2C)c1            7.71
11  COc1cccc(C(=O)Nc2ccc(OCCN3CCC3)c(-c3c(C)noc3C)c2)c1            8.05

====

- systemName: UniProt:P28223
- methodNotes: Radioligand binding assay ([3H]5-HT competition), 5-HT2A
- conditionParameters: [3H]5-HT radioligand, membranes of HEK293 cells expressing recombinant 5-HT2A; Ki from IC50 by Cheng-Prusoff; read-out: 5-HT2A serotonin binding Ki value
measuredProperty: Ki (nM)

> print(dat)
                                   molecule  units  endpointresult
1  CCOC1CC1C(=O)Nc1ccc(OCCN2CCCC2)c(-c2c(C)noc2C)c1 (stereo not drawn)     nM            8.52
2  Cc1noc(C)c1-c1cc(NC(=O)c2ccccc2)ccc1OCCN1C[C@@H]2C[C@H]1CO2     nM             6.4
3  Cc1ncsc1CC(=O)Nc1ccc(OCCN2CCC2)c(-c2c(C)noc2C)c1     nM            8.51
4  CCCN(C)CCOc1ccc(NC(=O)C2CC2)cc1-c1c(C)noc1C     nM            13.5
5  Cc1noc(C)c1-c1cc(NC(=O)Cc2cncc(F)c2)ccc1OCCN1CCC1     nM            14.6
6  Cc1noc(C)c1-c1cc(NC(=O)Cc2ccc(F)cn2)ccc1OC[C@H]1CCCCN1     nM            91.6

====

- systemName: UniProt:P28223
- methodNotes: Radioligand binding assay ([3H]5-HT competition), 5-HT2A
- conditionParameters: [3H]5-HT radioligand, membranes of HEK293 cells expressing recombinant 5-HT2A; Ki from IC50 by Cheng-Prusoff; read-out: 5-HT2A serotonin binding Ki value
- Method: Competition binding experiments consisted of addition of 5 μL of serially diluted test compound, 50 μL of radioligand stock diluted in Assay Buffer (20 mM HEPES, pH 7.4, 10 mM MgCl2), and 145 μL of diluted membrane expressing the receptor of interest to 96-well microtiter plates, which were then incubated for one hour at room temperature. […] Finally, 25 μL of BetaScint scintillation cocktail was added to each well and the plates were counted in a Packard TopCount scintillation counter. […]
pKi: −log10 of the molar value.
measuredProperty: pKi

> print(dat)
                                    compound  measuredproperty  endpointresult
 1  Cc1noc(C)c1-c1cc(NC(=O)C2(F)CC2)ccc1O[C@@H]1CCNC1               pKi            8.44
 2  Cc1noc(C)c1-c1cc(NC(=O)C(C)(C)F)ccc1OC[C@H]1CCCCN1               pKi            7.45
 3  CCOC1CC1C(=O)Nc1ccc(OCCN2CCOCC2)c(-c2c(C)noc2C)c1 (centres unmarked)               pKi            7.70
 4  Cc1noc(C)c1-c1cc(NC(=O)C2CC2)ccc1OC1CNC1               pKi            8.19
 5  Cc1noc(C)c1-c1cc(NC(=O)c2ncsc2C)ccc1OC[C@H]1CCCCN1               pKi            8.35
 6  Cc1noc(C)c1-c1cc(NC(=O)C(F)c2ccccc2)ccc1OC[C@H]1CCCCN1 (some centres unmarked)               pKi            8.47
 7  Cc1noc(C)c1-c1cc(NC(=O)c2c(F)cnn2C)ccc1OCCN1CCC1               pKi            7.89
 8  Cc1noc(C)c1-c1cc(NC(=O)Cc2cnsc2)ccc1OC[C@H]1CCCCN1               pKi            9.18
 9  CO[C@H]1CCN(CCOc2ccc(NC(=O)C3CC3)cc2-c2c(C)noc2C)C1               pKi            7.83
10  Cc1noc(C)c1-c1cc(NC(=O)C2CC2)ccc1OCCN1CCC2(CC1)CC(=O)N2               pKi            6.64
11  Cc1nnsc1C(=O)Nc1ccc(OC[C@H]2CCCCN2)c(-c2c(C)noc2C)c1               pKi            7.74
12  Cc1noc(C)c1-c1cc(NC(=O)C2CC2)ccc1O[C@H]1CCCNC1               pKi            6.14
13  CCN(CC)CCOc1ccc(NC(=O)C2CC2)cc1-c1c(C)noc1C               pKi            6.96
14  COC1(CC(=O)Nc2ccc(OC[C@H]3CCCCN3)c(-c3c(C)noc3C)c2)CCC1               pKi            6.98
15  Cc1noc(C)c1-c1cc(NC(=O)C2(F)CC2)ccc1OCCN1CCC1               pKi            7.99
16  Cc1noc(C)c1-c1cc(NC(=O)c2ccnn2C)ccc1OCCN1CCC1               pKi            7.72
17  COc1ccc(CC(=O)Nc2ccc(OC[C@H]3CCCCN3)c(-c3c(C)noc3C)c2)cc1               pKi            8.82
18  Cc1noc(C)c1-c1cc(NC(=O)C2(F)CC2)ccc1O[C@H]1CCNC1               pKi            7.23
19  Cc1noc(C)c1-c1cc(NC(=O)C2(F)CC2)ccc1OCCN1C[C@@H]2C[C@H]1CO2               pKi            8.33
20  Cc1noc(C)c1-c1cc(NC(=O)c2cnoc2)ccc1OC[C@H]1CCCCN1               pKi            7.21
